The reported numbers originate from the supplement of paper PMC10681739.

Target: ETS1 (UniProt P14921)
Sequence: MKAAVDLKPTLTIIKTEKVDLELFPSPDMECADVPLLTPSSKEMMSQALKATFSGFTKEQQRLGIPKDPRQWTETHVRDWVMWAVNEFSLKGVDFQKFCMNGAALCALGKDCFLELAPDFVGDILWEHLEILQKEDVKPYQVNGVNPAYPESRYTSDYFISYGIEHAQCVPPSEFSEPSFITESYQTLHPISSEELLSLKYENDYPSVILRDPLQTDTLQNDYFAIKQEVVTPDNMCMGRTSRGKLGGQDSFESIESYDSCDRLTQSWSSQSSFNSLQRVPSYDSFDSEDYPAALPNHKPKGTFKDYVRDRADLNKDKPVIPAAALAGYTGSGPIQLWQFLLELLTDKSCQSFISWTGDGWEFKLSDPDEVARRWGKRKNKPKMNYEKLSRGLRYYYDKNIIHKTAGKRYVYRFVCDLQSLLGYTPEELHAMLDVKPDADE
Experiment: ETS1 binding intensity (PBM fluorescence), ETS1 alone (arbitrary fluorescence units); higher = stronger binding
Conditions: ETS1 concentration 1 nM; RUNX1 concentration 0 nM
Whole data set: some 4,100 sequences, median “arbitrary fluorescence units” near 780, cut for the highest 2% near 22,000. Many of the other results were omitted from the sample, so the highest values are more common in it than they were.
REPORTED_METRIC: ETS1 binding intensity
Give only the figure.

Prompt line: Would you kindly share the measured ETS1 binding intensity for `TGGATAGTGGGACACCTCAACAGGATGTTAGTGAGG` ?
Response line: 858

Prompt line: Fill in the blank: the reported ETS1 binding intensity of `TTTCCACTTCCTGTTCTACTTGGGGCTACTGACTCA` is ____.
Response line: 25500

Prompt line: Return reported ETS1 binding intensity; argument: `TCCCCACACTTCCGGCCCCGCGCGCACAGCCGCACC`
Response line: 25400

Prompt line: Value lookup for ETS1 binding intensity; key = `TGCTTCCGGCGGGCGCTTGCTCCCCGAGGTCGGCAA`
Response line: 24800

Prompt line: Form field: reported ETS1 binding intensity of `TTGCATGTAGTTTAGGCTGTAGTTTCCTCCTGTAGT`
Response line: 534

Prompt line: Item `TTTCTTCCTGTTTGCATCACCCCAAATCCACTATCA` has what recorded ETS1 binding intensity?
Response line: 16900

Prompt line: Query (sequence): `AGGTACAACACCAGACGGTAGGCCAGGAAATCGCAG` ; field requested: ETS1 binding intensity
Response line: 407

Prompt line: ETS1 binding intensity for `GCACTCATTTCCTGTCCCCTGTAGTTTAAAGGTTTT` ?
Response line: 19700

Prompt line: ETS1 binding intensity for `AAGGTCGAGGTCTCGGCTTCCCCGGAACTTTTTGCT` ?
Response line: 295

Prompt line: What value of ETS1 binding intensity has been recorded for this entry: `GAGCCTGTTGCTTCCGGTTCAGAGCCCACGTGCTGG`
Response line: 22200

Prompt line: Entry `TATATGCACAGGAAGTCCCTTACAACCTACTCTGTT` has what ETS1 binding intensity?
Response line: 3590

Prompt line: Looking for the measured ETS1 binding intensity of `CACCCTCACGGAAACAGCTGTGTGTAAGCACCTCCA` , can you help?
Response line: 585

Prompt line: Please give the measured ETS1 binding intensity for this sequence: `TAGGGGCTGAGGGTCCGGGCGGAAGTGGGGCAGGCG`
Response line: 2500

Prompt line: Query (sequence): `TGTTGCCACTGTTAGACTAGAGAGCATCCTGTTGTT` ; field requested: ETS1 binding intensity
Response line: 851

Prompt line: Consider the sequence shown here: `TCCCGCTTCGGCCAACAGCCGGGCCACTTCCGGGGC` What is its recorded ETS1 binding intensity?
Response line: 2910

Prompt line: GET /values?readout=ETS1 binding intensity&item= `TGGAAGAGCCCCACGACATGTGCTTCCTGCGTGCTG`
Response line: 596

Prompt line: Consider the sequence `CAAGAGCCGGAAGTCCCTTGTGCCGTAGTCCTTCCC` and give its measured ETS1 binding intensity.
Response line: 9220

Prompt line: Data request, read-out ETS1 binding intensity, for `CCCCTCACTTCCCTCAACCCTTCCCATAAACTGGGA`
Response line: 1620

Prompt line: Reported ETS1 binding intensity, sequence `CCAGAGGGCGGAAGTGGGAGCTGCGACGGCGCTCCC` : ____
Response line: 7030

Prompt line: Which value of ETS1 binding intensity has been reported for `ACCCACTTCCTGTTAGAGCATCTTTGCAACCCCAGG` in the records?
Response line: 30200

Prompt line: For the sequence shown here, `TTCTGCTACATCCTGCCCACTCCCTGTGACTTCCAC` , give the reported ETS1 binding intensity.
Response line: 9350

Prompt line: Fill blank: measured ETS1 binding intensity of the sequence `CTGGGGTCGGGGCGAGGGAGCTGCCGGGGAAGTGAG` is ____.
Response line: 513

Prompt line: Please give the measured ETS1 binding intensity for this sequence: `CTGCCTTTCCTGCTAGGGTACAAATCACAGCCTTAG`
Response line: 1670

Prompt line: Entry under review: `CTGCACTTCCGGTCAGGCGGTCGGGCTGAGGGGCCC` . Reported ETS1 binding intensity?
Response line: 36600

Prompt line: Which ETS1 binding intensity is reported for this sequence? `GGGGCGATTACAGAACGGGTAACTCAGGATGATTCA`
Response line: 541
